Test: method code SF-AS, from PMID: 744242
Details: pH 5.6
Property name: logD

Use the examples below as a reference point.
>>> measurement("Cn1nnc2ccccc21")
1.13
>>> measurement("CCn1nnc2ccccc21")
1.58
>>> measurement("CCOC(=O)CCCCCn1nc2ccccc2n1")
3.17
>>> measurement("CCOC(=O)CCCCCn1nnc2ccccc21")
2.68
>>> measurement("CCOC(=O)CCn1nnc2ccccc21")
1.6
>>> measurement("OCCCn1nc2ccccc2n1")
1.4
>>> measurement("NC(=O)CCCn1nc2ccccc2n1")
0.78
>>> measurement("NC(=O)CCn1nc2ccccc2n1")
0.66

(a) CCOC(=O)CCCCn1nc2ccccc2n1
(b) Cn1nc2ccccc2n1
stdin: Please choose the item with the lower logD value from this pair: a and b Choose, then provide that item's label.
stdout: b

(P) CCOC(=O)Cn1nc2ccccc2n1
(Q) CCCCC(C)n1nc2ccccc2n1 (stereo not drawn)
stdin: # return whichever of P and Q has the smaller logD Selection: enter the item's label.
stdout: P
(P: 1.85, Q: 3.78)

(I) CC(C)n1nc2ccccc2n1
(II) CCCCCCn1nc2ccccc2n1
(III) OCCn1nnc2ccccc21
stdin: Descending sort on logD required. Note for the reader: the ranking is given by listing the labels in the order requested.
stdout: II, I, III
(II: 4.24, I: 2.54, III: 0.5)

====

Experiment: method code SF-AS, from PMID: 744242
Conditions: pH 5.6
Property name: logD

Study these solved cases before continuing.
>>> measurement("NC(=O)CCCCCn1nc2ccccc2n1")
1.41
>>> measurement("OCCn1nc2ccccc2n1")
0.92
>>> measurement("CCCCC(C)n1nnc2ccccc21 (stereo unspecified)")
3.44

(A) NC(=O)CCCCn1nc2ccccc2n1
(B) CCCC(C)n1nnc2ccccc21 (stereo unspecified)
(C) NC(=O)CCCn1nnc2ccccc21
(D) NC(=O)CCCCn1nnc2ccccc21
(E) CC(C)n1nnc2ccccc21
stdin: Exam item: list the entries in increasing order of logD. Give the order by naming the labels one after another as requested.
stdout: C, D, A, E, B

====

Experiment: method code SF-AS, from PMID: 744242
Details: pH 5.6
Property name: logD

Worked cases, logD given:
>>> measurement("CCCCCn1nnc2ccccc21")
3.22
>>> measurement("CCCCn1nnc2ccccc21")
2.57
>>> measurement("CCCn1nc2ccccc2n1")
2.53
>>> measurement("CCOC(=O)CCCCn1nnc2ccccc21")
2.2
>>> measurement("CCCCCn1nc2ccccc2n1")
3.63

(P) CCC(C)n1nc2ccccc2n1 (centres undefined)
(Q) NC(=O)Cn1nnc2ccccc21
stdin: I'm curious whether P or Q has the smaller logD number. Which is it? Answer = label.
stdout: Q
(Q: -0.11, P: 2.95)

(a) CCn1nc2ccccc2n1
(b) CCOC(=O)Cn1nnc2ccccc21
stdin: Which has the smaller recorded logD, a or b ? State the label of the item chosen.
stdout: b

====

Assay: method code SF-AS, from PMID: 744242
Settings: pH 5.6
Property name: logD

>>> measurement("CCOC(=O)CCCn1nnc2ccccc21")
1.86
>>> measurement("CCOC(=O)CCn1nc2ccccc2n1")
2.12
>>> measurement("CCOC(=O)CCCn1nc2ccccc2n1")
2.41

====

Test: method code SF-AS, from PMID: 744242
Settings: pH 5.6
Property name: logD

Use the examples below as a reference point.
>>> measurement("CCCn1nnc2ccccc21")
2.13
>>> measurement("CCCCn1nc2ccccc2n1")
3.12
>>> measurement("OCCCn1nnc2ccccc21")
0.91
>>> measurement("CCCCCCn1nnc2ccccc21")
3.7

(A) CCCC(C)n1nc2ccccc2n1 (stereo not drawn)
(B) CCC(C)n1nnc2ccccc21 (stereo not drawn)
(C) NC(=O)CCCCCn1nnc2ccccc21
(D) NC(=O)Cn1nc2ccccc2n1
stdin: Ordering: ascending logD. Your reply should list the labels following the order given in the request.
stdout: D, C, B, A
